src = PubChem BioAssay AID1963864

Measured viability, T/C accompanies every entry in the list below.
System: KRAS PDC multicell spheroid viability;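 also: drug exposure lasted seven days; 100% = DMSO vehicle wells and lower means fewer viable cells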
Test: Anticancer human tumor 521955-158-R6-J3-PDC patient-derived pancreatic carcinoma cell line growth inhibition [KRAS2]
Conditions: second compound 3.16 µM; first compound 0.0316 µM; stronger effect = lower value
attributeMeasured: viability, T/C (%)

- CC1COCCN1c1cc(-c2ccnn2C)c2ccnc(-c3ccn[nH]3)c2n1 (stereo unspecified) + CNCc1ccccc1-c1csc(C(C)Nc2nc(C)nc3cc(OC)c(OC)cc23)c1: 0.29
- COc1cc2nccc(Oc3ccc(NC(=O)C4(C(=O)Nc5ccc(F)cc5)CC4)cc3)c2cc1OC + CC1OCC2(CCN(c3cnc(Sc4ccnc(N)c4Cl)c(N)n3)CC2)C1N: 115
- CC1COCCN1c1cc(-c2ccnn2C)c2ccnc(-c3ccn[nH]3)c2n1 (stereo unspecified) + C=CC(=O)N1CCN(c2nc(=O)n(-c3c(C)ccnc3C(C)C)c3nc(-c4c(O)cccc4F)c(F)cc23)C(C)C1: 96.9
- COc1cc2nccc(Oc3ccc(NC(=O)C4(C(=O)Nc5ccc(F)cc5)CC4)cc3)c2cc1OC + C=CC(=O)N1CCN(c2nc(OCC3CCCN3C)nc3c2CCN(c2cccc4cccc(C)c24)C3)CC1CC#N: 43.3
- CC(=O)Nc1cccc(-n2c(=O)n(C3CC3)c(=O)c3c(Nc4ccc(I)cc4F)n(C)c(=O)c(C)c32)c1 + C=CC(=O)N1CCN(c2nc(OCC3CCCN3C)nc3c2CCN(c2cccc4cccc(C)c24)C3)CC1CC#N: 8.79
- COC(=O)c1ccc2c(C(=Nc3ccc(N(C)C(=O)CN4CCN(C)CC4)cc3)c3ccccc3)c(O)[nH]c2c1 + C=CC(=O)N1CCN(c2nc(=O)n(-c3c(C)ccnc3C(C)C)c3nc(-c4c(O)cccc4F)c(F)cc23)C(C)C1: 108
- O=C(c1cc(Cc2n[nH]c(=O)c3ccccc23)ccc1F)N1CCN(C(=O)C2CC2)CC1 + CC1OCC2(CCN(c3cnc(Sc4ccnc(N)c4Cl)c(N)n3)CC2)C1N: 96
- COC(=O)c1ccc2c(C(=Nc3ccc(N(C)C(=O)CN4CCN(C)CC4)cc3)c3ccccc3)c(O)[nH]c2c1 + CNCc1ccccc1-c1csc(C(C)Nc2nc(C)nc3cc(OC)c(OC)cc23)c1: 2.05
- CCNC(=O)CC1N=C(c2ccc(Cl)cc2)c2cc(OC)ccc2-n2c(C)nnc21 (stereo unspecified) + CNCc1ccccc1-c1csc(C(C)Nc2nc(C)nc3cc(OC)c(OC)cc23)c1: 0.29
- CC(C)NCC(C(=O)N1CCN(c2ncnc3c2C(C)CC3O)CC1)c1ccc(Cl)cc1 (stereo unspecified) + COc1cc2nc(C)nc(NC(C)c3cc(N)cc(C(F)(F)F)c3)c2cc1OC1CCOC1: 63.3
- Cn1ncnc1[C@H]1c2n[nH]c(=O)c3cc(F)cc(c23)N[C@@H]1c1ccc(F)cc1 + C=CC(=O)N1CCN(c2nc(=O)n(-c3c(C)ccnc3C(C)C)c3nc(-c4c(O)cccc4F)c(F)cc23)C(C)C1: 99.7
